These data points were gathered from patent US9981928B2.

- test: log P determination by HPLC on reversed-phase columns (C 18), analogously to OECD Guideline 117
- Format: physicochemical
- assay_setup: reversed-phase C18 HPLC column; acidic range, pH 2.7, 0.1% aqueous formic acid and acetonitrile; read-out: log P[a] / log P(HCOOH)
measured_metric: chromatographic logP
Note: the reply should be a number with no unit written.

Answered examples (3):
[
  {
    "compound": "O=c1[nH]n(Cc2ccccc2)c(=O)n1C1CC1 [drawing 120 R1=benzyl R10=cyclopropyl]",
    "chromatographic logP": 1.21
  },
  {
    "compound": "Cc1cc(F)c(-n2c(=S)n(C3CC3)c(=S)n2C)cc1SCC(F)(F)F [Example 182]",
    "chromatographic logP": 3.83
  },
  {
    "compound": "CCn1c(=O)n(-c2cc(SCC(F)(F)F)c(C)cc2F)c(=O)n1C [Example 122]",
    "chromatographic logP": 2.71
  }
]

input: What does the data say about its chromatographic logP? Entry: OB(O)c1cc(SCC(F)(F)F)c(Cl)cc1Cl [VIIIa-6]
output: 2.61

input: Another compound to look at: CC(C)n1[nH]c(=O)n(C2CC2)c1=O [drawing 120 R1=CH(CH3)2 R10=cyclopropyl]
output: 0.5

input: What about CC(C)n1c(=O)[nH]n(C)c1=O [drawing 120 R1=CH3 R10=CH(CH3)2] ?
output: 0.27

input: Proceed to Cc1cc(F)c(N2CCCC2=NCC(F)(F)F)cc1[S+]([O-])CC(F)(F)F (centres unmarked) [Example 3]
output: 1.02

input: Check CCn1c(=O)n(-c2ccccc2)c(=O)n1-c1cc([S+]([O-])CC(F)(F)F)c(C)cc1F (centres unmarked) [Example 88] too.
output: 2.71

###

- test: log P determination by HPLC on reversed-phase columns (C 18), analogously to OECD Guideline 117
- Format: physicochemical
- assay_setup: LC-MS in the acidic range, pH 2.7, 0.1% aqueous formic acid / acetonitrile, HPLC reversed-phase C 18
measured_metric: logP (HCOOH)
Answer with the value's number alone.

Some entries whose results are on file:
[
  {
    "compound": "Cc1cc(F)c(-n2c(=O)n(C3CC3)c(=O)n2C)cc1[S+]([O-])CC(F)(F)F (single isomer, unassigned) [Example 151]",
    "logP (HCOOH)": 1.98
  },
  {
    "compound": "Cn1c(=O)n(C)n(-c2ccc(Cl)c(SCC(F)(F)F)c2)c1=O",
    "logP (HCOOH)": 2.72
  },
  {
    "compound": "C=CCn1c(=O)n(C)c(=O)n1-c1ccc(C)c(SCC(F)(F)F)c1",
    "logP (HCOOH)": 3.03
  },
  {
    "compound": "Cn1c(=O)n(C)n(-c2ccc(Br)c(SCC(F)(F)F)c2)c1=O",
    "logP (HCOOH)": 2.83
  },
  {
    "compound": "Cc1ccc(-n2c(=O)n(C(C)C)c(=O)n2C)cc1[S+]([O-])CC(F)(F)F (stereo not shown)",
    "logP (HCOOH)": 2.27
  }
]

input: Recorded logP (HCOOH) of Cc1ccc(-n2c(=O)n(C)c(=O)n2Cc2ccccc2Cl)cc1SCC(F)(F)F , please.
output: 3.80

input: Also Cc1cc(C)c([S+]([O-])CC(F)(F)F)cc1N1C(=O)C(=O)N(CC(F)F)C1=O (stereo not shown) , if possible.
output: 2.44

input: Another compound: Cc1cc(C)c([S+]([O-])CC(F)(F)F)cc1-n1c(=O)n(C)c(=O)n1C (stereo not shown)
output: 1.75
